pKi: −log10 of the molar value.
Literature survey of pKi (system: D(3) dopamine receptor (Rattus norvegicus)).
Sequence (P19020 whole entry): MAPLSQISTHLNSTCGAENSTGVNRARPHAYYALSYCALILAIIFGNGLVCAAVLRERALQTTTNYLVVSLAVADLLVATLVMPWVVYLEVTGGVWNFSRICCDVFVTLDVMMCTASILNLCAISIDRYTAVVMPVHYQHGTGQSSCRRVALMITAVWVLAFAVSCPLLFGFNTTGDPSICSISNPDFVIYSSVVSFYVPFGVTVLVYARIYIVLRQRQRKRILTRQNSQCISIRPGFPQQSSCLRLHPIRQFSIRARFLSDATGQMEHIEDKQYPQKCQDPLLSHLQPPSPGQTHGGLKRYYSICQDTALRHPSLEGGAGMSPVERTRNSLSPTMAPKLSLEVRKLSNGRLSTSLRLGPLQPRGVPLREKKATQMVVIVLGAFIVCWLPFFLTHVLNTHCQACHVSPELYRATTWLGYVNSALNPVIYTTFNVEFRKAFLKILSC

Compound	Bound Sign	pKi
O=c1cc(O)cc2oc(-c3ccc(O)c(-c4c(O)cc(O)c5c(=O)cc(-c6ccc(O)cc6)oc45)c3)cc(O)c1-2	=	5.91
Cc1nc2n(c(=O)c1CCN1CCC(C(=O)c3ccc(F)cc3)CC1)CCS2	=	6.97
CN1CCN(C2=Nc3ccccc3Cc3ccccc32)CC1	=	6.04
CN1CCc2cccc3c2[C@H]1Cc1ccc(O)c(O)c1-3	=	7.36
C[C@@H]1O[C@@H](OC[C@H]2O[C@@H](Oc3c(-c4ccc(O)c(O)c4)oc4cc(O)cc(O)c4c3=O)[C@H](O)[C@@H](O)[C@@H]2O)[C@H](O)[C@H](O)[C@H]1O	<	5.00
COc1ccccc1N1CCN(CCN(C(=O)C2CCCCC2)c2ccccn2)CC1	=	6.43
CCS(=O)(=O)c1cc(C(=O)NCC2CCCN2CC2CC2)c(OC)cc1I (stereo not given)	=	8.92
CC(C)=CCC[C@]1(C)[C@@H](CC=C(C)C)C[C@]2(CC=C(C)C)C(=O)C(CC=C(C)C)C(=O)[C@]1(C(=O)C(C)C)C2=O (stereo not given in full)	<	5.00
Nc1ncnc2nc(-c3ccc(N4CCOCC4)nc3)cc(-c3cccc(Br)c3)c12	<	5.00
CN1CCN(C2=Nc3cc(F)ccc3Cc3ccccc32)CC1	=	6.59
